- System: blackgrass (Alopecurus myosuroides)
- assay_notes: Test A postemergence, blackgrass
- Type: in vivo
- assay_setup: 125 g ai/ha, 0 to 100 scale, 10 days

[
  {
    "molecule": "Cc1cc(C)c(N(COC(=O)C(C)(C)C)S(=O)(=O)C(F)(F)F)cc1N1CCC(OC2CCCC2)C1=O (stereo not shown)",
    "Plant response rating, Blackgrass": 0
  },
  {
    "molecule": "Cc1cc(C)c(N(COC(=O)C(C)(C)C)S(=O)(=O)C(F)(F)F)cc1N1CCC(OC2CCC2)C1=O (stereo not shown)",
    "Plant response rating, Blackgrass": 40
  },
  {
    "molecule": "C#CCOC1CCN(c2cc(NS(=O)(=O)C(F)(F)F)c(C)cc2C)C1=O (stereo not shown)",
    "Plant response rating, Blackgrass": 50
  },
  {
    "molecule": "Cc1cc(C)c(N2CCC(OC3CCCC3)C2=O)cc1NS(=O)(=O)C(F)(F)F (stereo not shown)",
    "Plant response rating, Blackgrass": 40
  }
]

---

- Tested on: goosegrass (Eleusine indica)
- assay_notes: Test C preemergence, goosegrass
- Type: in vivo
- assay_setup: 125 g ai/ha Preemergence; 0 is no effect, 100 is complete control
property_measured: Plant response rating (0 to 100 scale), Goosegrass

[
  {
    "compound": "Cc1cc(C)c(N2CCC(OC3CC3)C2=O)cc1NS(=O)(=O)C(F)(F)F (single isomer, unassigned) [Compound 29]",
    "quantitative_result": 100
  },
  {
    "compound": "Cc1c(NS(=O)(=O)C(F)(F)F)cc(N2CCCC(OC3CC3)C2=O)c(C)c1F (stereo not shown) [Compound 35]",
    "quantitative_result": 100
  },
  {
    "compound": "Cc1cc(C)c(N(C(=O)OC(C)C)S(=O)(=O)C(F)(F)F)cc1N1CCC(OC2CC2)C1=O (stereo not shown) [Compound 18]",
    "quantitative_result": 0
  },
  {
    "compound": "Cc1c(N2CCCC(OC3CCC3)C2=O)cc(N(COC(=O)C(C)(C)C)S(=O)(=O)C(F)(F)F)c(C)c1F (stereo not shown) [Compound 39]",
    "quantitative_result": 60
  },
  {
    "compound": "Cc1cc(C)c(N2CCC(O)C2=O)cc1NS(=O)(=O)C(F)(F)F (stereo not shown) [Compound 14]",
    "quantitative_result": 100
  },
  {
    "compound": "Cc1c(NS(=O)(=O)C(F)(F)F)cc(N2CCC(OCC3CCC3)C2=O)c(C)c1F (stereo not shown) [Compound 64]",
    "quantitative_result": 100
  },
  {
    "compound": "Cc1cc(Cl)c(N(COC(=O)C(C)(C)C)S(=O)(=O)C(F)(F)F)cc1N1CCC(OC2CC2)C1=O (stereo not shown) [Compound 33]",
    "quantitative_result": 100
  }
]

---

- System: ragweed (common ragweed, Ambrosia artemisiifolia)
- assay_notes: Test C preemergence, ragweed
- Format: in vivo
- assay_setup: 125 g ai/ha Preemergence; 0 is no effect, 100 is complete control
- From the text: […]
Hi, to clarify the labels: Y covers Plant response rating (0 to 100 scale), Ragweed from 90 upward, N covers anything below 90.

[
  {
    "compound": "Cc1cc(C)c(N(COC(=O)C(C)(C)C)S(=O)(=O)C(F)(F)F)cc1N1CCC(OCC2CCC2)C1=O (stereo not drawn)",
    "label_value": "N"
  },
  {
    "compound": "Cc1cc(C)c(N(COC(=O)C(C)(C)C)S(=O)(=O)C(F)(F)F)cc1N1CCC(OCC2CC(F)(F)C2)C1=O (stereo not drawn)",
    "label_value": "N"
  },
  {
    "compound": "Cc1cc(C)c(N(COC(=O)C(C)(C)C)S(=O)(=O)C(F)(F)F)cc1N1CCC(OCC2CC2)C1=O (stereo not drawn)",
    "label_value": "N"
  },
  {
    "compound": "Cc1cc(C)c(N(C(=O)OC(C)C)S(=O)(=O)C(F)(F)F)cc1N1CCC(OC2CC2)C1=O (stereo not drawn)",
    "label_value": "N"
  },
  {
    "compound": "Cc1cc(C)c(N2CCC(OC3CC3)C2=O)cc1NS(=O)(=O)C(F)(F)F (single isomer, unassigned) [Compound 30]",
    "label_value": "Y"
  },
  {
    "compound": "C=C(C)COC1CCN(c2cc(NS(=O)(=O)C(F)(F)F)c(C)cc2C)C1=O (stereo not drawn)",
    "label_value": "N"
  },
  {
    "compound": "Cc1cc(C)c(N2CCC(OCC3CCCO3)C2=O)cc1NS(=O)(=O)C(F)(F)F (stereo not drawn)",
    "label_value": "N"
  },
  {
    "compound": "CCO/N=C1\\CCN(c2cc(NS(=O)(=O)C(F)(F)F)c(C)cc2C)C1=O",
    "label_value": "Y"
  }
]
